Recorded values, source the Human Domainome abundance scans (Beltran et al. 2025).

B1: F-BAR and double SH3 domains protein 1, residues 467 to 528; numbered along this chain, Q86WN1 (parent)
chain: RALPCPAHVVFRYQAGREDELTITEGEWLEVIEEGDADEWVKARNQHGEVGFVPERYLNFPD

Variants of: B1
PROCEDURE DETAILS: abundance fitness (aPCA) (normalised: wild type 0, dead -1); higher = more abundant; growth selection in yeast, the domain comes from the species named
CONDITION SET: Homo sapiens
Each record gets a class by abundance fitness: low range = under -0.3, mid range = from -0.3 up to -0.07, high range = -0.07 and over

{"VARIANT CODE": "A7M", "LABEL VALUE": "low range"}
{"VARIANT CODE": "E39R", "LABEL VALUE": "high range"}
{"VARIANT CODE": "E34W", "LABEL VALUE": "mid range"}
{"VARIANT CODE": "R1F", "LABEL VALUE": "high range"}
{"VARIANT CODE": "E20C", "LABEL VALUE": "mid range"}
{"VARIANT CODE": "V31G", "LABEL VALUE": "low range"}
{"VARIANT CODE": "A2L", "LABEL VALUE": "high range"}
{"VARIANT CODE": "E30H", "LABEL VALUE": "mid range"}
{"VARIANT CODE": "A37Q", "LABEL VALUE": "high range"}
{"VARIANT CODE": "L3E", "LABEL VALUE": "low range"}
{"VARIANT CODE": "E30K", "LABEL VALUE": "mid range"}
{"VARIANT CODE": "T22E", "LABEL VALUE": "low range"}
{"VARIANT CODE": "L3G", "LABEL VALUE": "low range"}
{"VARIANT CODE": "E39Y", "LABEL VALUE": "mid range"}
{"VARIANT CODE": "R17V", "LABEL VALUE": "mid range"}
{"VARIANT CODE": "D36W", "LABEL VALUE": "high range"}
